Overview of reported pEC50 across a group of molecules:
target: FPR2 (Homo sapiens (Human)); assay: Agonistic activity (calcium FLIPR) in hFPR2-Aq-CHO cells; conditions: FLIPR Calcium 5 dye fluorescence, agonistic response
Sequence (P25090 whole entry): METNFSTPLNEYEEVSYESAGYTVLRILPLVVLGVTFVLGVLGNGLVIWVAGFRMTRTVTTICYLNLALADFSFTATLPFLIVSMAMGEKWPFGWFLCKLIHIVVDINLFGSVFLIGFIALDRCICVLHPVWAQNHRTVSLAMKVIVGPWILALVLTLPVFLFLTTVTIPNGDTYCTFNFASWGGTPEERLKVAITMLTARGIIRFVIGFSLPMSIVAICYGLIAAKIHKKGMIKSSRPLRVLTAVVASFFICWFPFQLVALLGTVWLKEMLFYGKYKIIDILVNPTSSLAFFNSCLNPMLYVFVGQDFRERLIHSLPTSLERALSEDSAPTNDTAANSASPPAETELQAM
pEC50: −log10 of the molar value.

Problem: So what's the measured pEC50 for this one? COc1ccc([C@@H]2CCN(C(C)=O)C[C@H]2NC(=O)Nc2ccc(C(F)(F)F)nc2)cc1 (racemic) [Example 27]
Result: 6.00 to 9.00

Problem: Another molecule: CCc1ccc([C@@H]2CC(=O)NC[C@H]2NC(=O)Nc2ccc(Cl)cc2)cc1 (racemic) [Example 73]
Result: 6.00 to 9.00

Problem: Try this molecule next: COc1cc(F)c([C@@H]2CC(=O)NC[C@H]2NC(=O)Nc2ccc(Cl)c(O)c2)c(F)c1 (racemic) [Example 57]
Result: > 9.00

Problem: Another molecule to check: COc1ccc([C@@H]2CCN(C(=O)C3CC3)C[C@H]2NC(=O)Nc2ccc(Cl)cc2)cc1 (racemic) [Example 12]
Result: > 9.00

Problem: Continue with COc1cc(F)c([C@@H]2CC(=O)NC[C@H]2NC(=O)Nc2ccc(Cl)cc2)c(F)c1 (racemic) [Example 23]
Result: > 9.00

Problem: Item: COc1ccc(C2CC(=O)N(CC(F)F)CC2NC(=O)Nc2ccc(Cl)cc2)c(F)c1 (single isomer, unassigned; ent1) [Example 61]
Result: > 9.00

Problem: And the next one, COc1cc(F)c(C2CCNCC2NC(=O)Nc2ccc(Cl)cc2)c(F)c1 (single isomer, unassigned; ent2) [Example 37] ?
Result: 6.00 to 9.00

* * *

Each entry below carries its reported EC50.
biological target: FPR1 (Homo sapiens (Human)); experiment: Agonistic activity (calcium FLIPR) in hFPR1-Gα15-CHO cells; conditions: FLIPR Calcium 5 dye fluorescence, agonistic response

Problem: Need EC50 of O=C1C[C@@H](c2ccc(OC(F)F)cc2)[C@H](NC(=O)Nc2ccc(Cl)cc2)CN1 (racemic) , thanks.
Result: 1 to 1000 nM

Problem: Now consider COc1cc(F)c([C@@H]2CC(=O)NC[C@H]2NC(=O)Nc2ccc(Cl)c(O)c2)c(F)c1 (racemic) .
Result: 1 to 1000 nM

Problem: Let us now turn to O=C1CC(c2ccc(Cl)cc2)C(NC(=O)Nc2ccc(Cl)cc2)CN1 (single isomer, unassigned; ent1)
Result: 1 to 1000 nM

* * *

Examples of compounds with documented EC50 follow.
molecular target: FPR1 (Homo sapiens (Human), UniProt P21462); assay: Agonistic activity (calcium FLIPR) in hFPR1-Gα15-CHO cells; settings: FLIPR Calcium 5 dye fluorescence, agonistic response
Sequence (P21462 whole entry): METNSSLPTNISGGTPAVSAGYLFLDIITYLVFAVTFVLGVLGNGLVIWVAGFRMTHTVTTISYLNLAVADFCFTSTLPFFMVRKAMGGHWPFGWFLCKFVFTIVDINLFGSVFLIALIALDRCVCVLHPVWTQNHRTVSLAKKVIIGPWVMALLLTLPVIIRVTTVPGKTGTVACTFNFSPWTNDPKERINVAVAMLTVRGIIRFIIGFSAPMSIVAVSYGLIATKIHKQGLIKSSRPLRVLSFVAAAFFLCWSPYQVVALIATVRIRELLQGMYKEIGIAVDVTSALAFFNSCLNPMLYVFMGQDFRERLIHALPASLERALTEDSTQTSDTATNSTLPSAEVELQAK

Completed entries (count: 5):
COc1cc(F)c([C@@H]2CC(=O)NC[C@H]2NC(=O)Nc2ccc(Oc3ccccc3)cc2)c(F)c1 (racemic)    1 to 1000 nM
O=C(Nc1ccc(Cl)cc1)NC1CN(C(=O)C2CC2)CCC1c1ccccc1 (single isomer, unassigned; ent2) [Example 84]    1 to 1000 nM
O=C(Nc1ccc(Cl)cc1)NC1CNCCC1c1ccccc1 (single isomer, unassigned; ent2) [Example 81]    1 to 1000 nM
COc1ccc(C2CC(=O)NCC2NC(=O)Nc2ccc(Cl)cc2)cc1 (single isomer, unassigned; ent1) [Example 76]    1 to 1000 nM
COCCC(=O)N1CC[C@@H](c2ccc(OC)cc2)[C@H](NC(=O)Nc2ccc(Cl)cc2)C1 (racemic)    < 1 nM

Problem: Which EC50 value is on record for COc1cc(F)c(C2CC(=O)NCC2NC(=O)Nc2ccncc2)c(F)c1 (single isomer, unassigned; ent1) [Example 47] ?
Result: 1 to 1000 nM

Problem: Next compound up: CCc1cc(F)c([C@@H]2CC(=O)NC[C@H]2NC(=O)Nc2ccc(Cl)cc2)c(F)c1 (racemic)
Result: 1 to 1000 nM

Problem: And what about the compound COc1cc(F)c([C@@H]2CCN(C(C)=O)C[C@H]2NC(=O)Nc2ccc(Cl)cc2)c(F)c1 (racemic) ?
Result: 1 to 1000 nM

Problem: Cool, now COc1ccc([C@@H]2CCN(C(=O)C3CC3)C[C@H]2NC(=O)Nc2ccc(Cl)cc2)cc1 (racemic)
Result: < 1 nM

Problem: Then this compound: COc1ccc(C2CC(=O)NCC2NC(=O)Nc2ccc(Cl)cc2)cc1 (single isomer, unassigned; ent2) [Example 77]
Result: 1 to 1000 nM

Problem: Now consider COc1cc(F)c(C2CC(=O)NCC2NC(=O)Nc2ccncc2)c(F)c1 (single isomer, unassigned; ent2) [Example 48] and answer again.
Result: 1 to 1000 nM
